targetOrTestSystem: the molecule itself
protocolSummary: native gel or EMSA; BN-PAGE after the fluorescence measurements of purified MscS reconstituted into DOPC bilayers (molar ratio 1:100; 40 mM HEPES pH 7.2, 100 mM KCl, 1 mM EGTA)
readoutName: stoichiometry N
Give only the figure.

The protein MscS YFF G101W (complex, E. coli, UniProt P0C0S1 1-286, looked up) MEDLNVVDSINGAGSYLVANQALLLSYAVNIVAALAIIIVGLIIARMISNAVNRLMISRKIDATVADFLSALVRYGIIAFTLIAALGRVGVQTASVIAVLWAAGLAVGLALQGSLSNLAAGVLLVMFRPFRAGEYVDLGGVAGTVLSVQIFSTTMRTADGKIIVIPNGKIIAGNIINFSREPVRRNEFIIGVAYDSDIDQVKQILTNIIQSEDRILKDREMTVRLNELGASSINFVVRVFSNSGDLQNVYFDVLERIKREFDAAGISFPYPQMDVNFKRVKEDKAA showed stoichiometry N equal to 7

The protein MscS YFF L105W (complex, E. coli, UniProt P0C0S1 1-286, looked up) MEDLNVVDSINGAGSYLVANQALLLSYAVNIVAALAIIIVGLIIARMISNAVNRLMISRKIDATVADFLSALVRYGIIAFTLIAALGRVGVQTASVIAVLGAAGWAVGLALQGSLSNLAAGVLLVMFRPFRAGEYVDLGGVAGTVLSVQIFSTTMRTADGKIIVIPNGKIIAGNIINFSREPVRRNEFIIGVAYDSDIDQVKQILTNIIQSEDRILKDREMTVRLNELGASSINFVVRVFSNSGDLQNVYFDVLERIKREFDAAGISFPYPQMDVNFKRVKEDKAA showed stoichiometry N equal to 7

The protein MscS YFF A94W (complex, E. coli) MEDLNVVDSINGAGSYLVANQALLLSYAVNIVAALAIIIVGLIIARMISNAVNRLMISRKIDATVADFLSALVRYGIIAFTLIAALGRVGVQTWSVIAVLGAAGLAVGLALQGSLSNLAAGVLLVMFRPFRAGEYVDLGGVAGTVLSVQIFSTTMRTADGKIIVIPNGKIIAGNIINFSREPVRRNEFIIGVAYDSDIDQVKQILTNIIQSEDRILKDREMTVRLNELGASSINFVVRVFSNSGDLQNVYFDVLERIKREFDAAGISFPYPQMDVNFKRVKEDKAA showed stoichiometry N equal to 7

The protein MscS YFF T93W (complex, E. coli) MEDLNVVDSINGAGSYLVANQALLLSYAVNIVAALAIIIVGLIIARMISNAVNRLMISRKIDATVADFLSALVRYGIIAFTLIAALGRVGVQWASVIAVLGAAGLAVGLALQGSLSNLAAGVLLVMFRPFRAGEYVDLGGVAGTVLSVQIFSTTMRTADGKIIVIPNGKIIAGNIINFSREPVRRNEFIIGVAYDSDIDQVKQILTNIIQSEDRILKDREMTVRLNELGASSINFVVRVFSNSGDLQNVYFDVLERIKREFDAAGISFPYPQMDVNFKRVKEDKAA showed stoichiometry N equal to 7

The protein MscS YFF A103W (complex, E. coli, UniProt P0C0S1 1-286, looked up) MEDLNVVDSINGAGSYLVANQALLLSYAVNIVAALAIIIVGLIIARMISNAVNRLMISRKIDATVADFLSALVRYGIIAFTLIAALGRVGVQTASVIAVLGAWGLAVGLALQGSLSNLAAGVLLVMFRPFRAGEYVDLGGVAGTVLSVQIFSTTMRTADGKIIVIPNGKIIAGNIINFSREPVRRNEFIIGVAYDSDIDQVKQILTNIIQSEDRILKDREMTVRLNELGASSINFVVRVFSNSGDLQNVYFDVLERIKREFDAAGISFPYPQMDVNFKRVKEDKAA showed stoichiometry N equal to 7

The protein MscS YFF G113W (complex, E. coli, UniProt P0C0S1 1-286, looked up) MEDLNVVDSINGAGSYLVANQALLLSYAVNIVAALAIIIVGLIIARMISNAVNRLMISRKIDATVADFLSALVRYGIIAFTLIAALGRVGVQTASVIAVLGAAGLAVGLALQWSLSNLAAGVLLVMFRPFRAGEYVDLGGVAGTVLSVQIFSTTMRTADGKIIVIPNGKIIAGNIINFSREPVRRNEFIIGVAYDSDIDQVKQILTNIIQSEDRILKDREMTVRLNELGASSINFVVRVFSNSGDLQNVYFDVLERIKREFDAAGISFPYPQMDVNFKRVKEDKAA showed stoichiometry N equal to 7
